Source listed as paper PMC12000319.

Target: UCP1 (Homo sapiens, UniProt P25874)
Construct: His8 (N, cleaved yes); Factor Xa protease cleavage site (N, cleaved yes); made in house; host or cells: Saccharomyces cerevisiae strain W303.1B
Sequence (P25874 1-307): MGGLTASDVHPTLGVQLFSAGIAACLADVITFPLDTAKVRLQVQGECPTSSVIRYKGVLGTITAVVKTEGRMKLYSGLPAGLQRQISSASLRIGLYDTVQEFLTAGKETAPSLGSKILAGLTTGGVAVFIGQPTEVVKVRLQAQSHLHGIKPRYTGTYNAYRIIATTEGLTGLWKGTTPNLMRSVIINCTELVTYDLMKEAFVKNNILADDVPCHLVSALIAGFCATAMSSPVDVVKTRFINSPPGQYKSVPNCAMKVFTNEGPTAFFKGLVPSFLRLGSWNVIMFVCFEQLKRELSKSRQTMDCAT
Assay: Isothermal titration calorimetry of nucleotide binding
Parameters: unit not given here
Settings: Molar ratio (Nucleotide/UCP) 1.41647; representative isotherm, pH 6.0, 20 °C
property name: isotherm data point (enthalpy change per injection)

compound: Nc1ccn(C2OC(COP(=O)(O)OP(=O)(O)OP(=O)(O)O)C(O)C2O)c(=O)n1 (centres unmarked) [CTP]
val: -1.98
--
compound: Cc1cn([C@H]2C[C@H](O)[C@@H](COP(=O)(O)OP(=O)(O)OP(=O)(O)O)O2)c(=O)[nH]c1=O [dTTP, thymidine triphosphate]
val: -1.325
--
compound: Nc1ncnc2c1ncn2[C@@H]1O[C@H](COP(=O)(O)OP(=O)(O)OP(=O)(O)O)[C@@H](O)[C@H]1O [ATP, adenosine triphosphate]
val: -1.066
--
compound: O=c1ccn([C@@H]2O[C@H](CO[P@@](=O)(O)O[P@@](=O)(O)OP(=O)(O)O)[C@@H](O)[C@H]2O)c(=O)[nH]1 (stereo in doubt) [UTP, uridine triphosphate]
val: -0.3952
--
compound: Nc1nc2c(ncn2[C@@H]2O[C@H](COP(=O)(O)OP(=O)(O)OP(=O)(O)O)[C@@H](O)[C@H]2O)c(=O)[nH]1 [GTP, guanosine triphosphate]
val: -2.5907

* * *

Biological target: UCP1 (Homo sapiens)
Construct: His8 (N, cleaved yes); Factor Xa protease cleavage site (N, cleaved yes); made in house; host or cells: Saccharomyces cerevisiae strain W303.1B
Assay: Isothermal titration calorimetry of nucleotide binding
Settings: ITC

compound: Nc1nc2c(ncn2[C@@H]2O[C@H](COP(=O)(O)OP(=O)(O)OP(=O)(O)O)[C@@H](O)[C@H]2O)c(=O)[nH]1 [GTP, guanosine triphosphate]
measured on: UCP1 (Homo sapiens)
binding affinity to UCP1 (in words): intermediary affinities
//
compound: O=c1ccn([C@@H]2O[C@H](CO[P@@](=O)(O)O[P@@](=O)(O)OP(=O)(O)O)[C@@H](O)[C@H]2O)c(=O)[nH]1 (stereo in doubt) [UTP, uridine triphosphate]
measured on: UCP1 (Homo sapiens)
binding affinity to UCP1 (in words): intermediary affinities

* * *

Biological target: UCP1 (Homo sapiens)
Construct: His8 (N, cleaved yes); Factor Xa protease cleavage site (N, cleaved yes); made in house; host or cells: Saccharomyces cerevisiae strain W303.1B
Sequence (P25874 1-307): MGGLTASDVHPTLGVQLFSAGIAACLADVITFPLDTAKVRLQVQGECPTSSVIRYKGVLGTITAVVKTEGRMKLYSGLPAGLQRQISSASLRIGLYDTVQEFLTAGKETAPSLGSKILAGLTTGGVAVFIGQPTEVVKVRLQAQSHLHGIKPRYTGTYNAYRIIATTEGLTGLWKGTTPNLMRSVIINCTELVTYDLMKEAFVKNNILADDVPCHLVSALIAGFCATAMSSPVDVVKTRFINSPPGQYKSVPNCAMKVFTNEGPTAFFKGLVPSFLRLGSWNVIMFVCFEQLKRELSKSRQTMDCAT
Assay: Isothermal titration calorimetry of nucleotide binding
Parameters: unit not given here
Details: Molar ratio (Nucleotide/UCP) 1.69692; representative isotherm, pH 6.0, 20 °C
isotherm data point (enthalpy change per injection) values, listed per item
property name: isotherm data point (enthalpy change per injection)

compound: Nc1ccn(C2OC(COP(=O)(O)OP(=O)(O)OP(=O)(O)O)C(O)C2O)c(=O)n1 (centres unmarked)
measured on: UCP1 (Homo sapiens)
val: -1.2037
--
compound: O=c1ccn([C@@H]2O[C@H](CO[P@@](=O)(O)O[P@@](=O)(O)OP(=O)(O)O)[C@@H](O)[C@H]2O)c(=O)[nH]1 (stereo in doubt) [UTP, uridine triphosphate]
measured on: UCP1 (Homo sapiens)
val: 0.2895
--
compound: Nc1ncnc2c1ncn2[C@@H]1O[C@H](COP(=O)(O)OP(=O)(O)OP(=O)(O)O)[C@@H](O)[C@H]1O [ATP, adenosine triphosphate]
measured on: UCP1 (Homo sapiens)
val: -0.2462
--
compound: Nc1nc2c(ncn2[C@@H]2O[C@H](COP(=O)(O)OP(=O)(O)OP(=O)(O)O)[C@@H](O)[C@H]2O)c(=O)[nH]1 [GTP, guanosine triphosphate]
measured on: UCP1 (Homo sapiens)
val: -0.3592
--
compound: Cc1cn([C@H]2C[C@H](O)[C@@H](COP(=O)(O)OP(=O)(O)OP(=O)(O)O)O2)c(=O)[nH]c1=O [dTTP, thymidine triphosphate]
measured on: UCP1 (Homo sapiens)
val: 0.02513

* * *

Molecular target: UCP1 (Homo sapiens, UniProt P25874)
Construct: His8 (N, cleaved yes); Factor Xa protease cleavage site (N, cleaved yes); made in house; host or cells: Saccharomyces cerevisiae strain W303.1B
Assay: Isothermal titration calorimetry of nucleotide binding
Set-up: unit not given here
Conditions: Molar ratio (Nucleotide/UCP) 1.48589; representative isotherm, pH 6.0, 20 °C
isotherm data point (enthalpy change per injection) values, listed per item
property name: isotherm data point (enthalpy change per injection)

compound: Nc1ccn(C2OC(COP(=O)(O)OP(=O)(O)OP(=O)(O)O)C(O)C2O)c(=O)n1 (stereo not shown)
measured on: UCP1 (Homo sapiens, UniProt P25874)
val: -0.1226
//
compound: Nc1nc2c(ncn2[C@@H]2O[C@H](COP(=O)(O)OP(=O)(O)OP(=O)(O)O)[C@@H](O)[C@H]2O)c(=O)[nH]1 [GTP, guanosine triphosphate]
measured on: UCP1 (Homo sapiens, UniProt P25874)
val: -0.9936
//
compound: O=c1ccn([C@@H]2O[C@H](CO[P@@](=O)(O)O[P@@](=O)(O)OP(=O)(O)O)[C@@H](O)[C@H]2O)c(=O)[nH]1 (stereo in doubt) [UTP, uridine triphosphate]
measured on: UCP1 (Homo sapiens, UniProt P25874)
val: -0.4843
//
compound: Cc1cn([C@H]2C[C@H](O)[C@@H](COP(=O)(O)OP(=O)(O)OP(=O)(O)O)O2)c(=O)[nH]c1=O [dTTP, thymidine triphosphate]
measured on: UCP1 (Homo sapiens, UniProt P25874)
val: -0.8361

* * *

Target: UCP1 (Homo sapiens, UniProt P25874)
Construct: His8 (N, cleaved yes); Factor Xa protease cleavage site (N, cleaved yes); made in house; host or cells: Saccharomyces cerevisiae strain W303.1B
Sequence (P25874 1-307): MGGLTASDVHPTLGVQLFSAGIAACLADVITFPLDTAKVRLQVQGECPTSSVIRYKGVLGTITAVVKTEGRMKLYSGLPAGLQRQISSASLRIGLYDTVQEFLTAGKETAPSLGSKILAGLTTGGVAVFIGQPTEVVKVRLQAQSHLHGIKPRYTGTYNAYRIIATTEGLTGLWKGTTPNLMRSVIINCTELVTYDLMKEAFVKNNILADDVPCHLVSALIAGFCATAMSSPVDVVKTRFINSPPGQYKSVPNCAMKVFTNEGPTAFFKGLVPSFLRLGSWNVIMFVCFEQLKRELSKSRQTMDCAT
Experiment: Isothermal titration calorimetry of nucleotide binding;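 note: purified human UCP1 in cacodylate buffer with lauryl maltose neopentyl glycol and cardiolipin, titrated with nucleotides, isotherms fitted by one-site model yielding ΔH, Kd and stoichiometry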
Set-up: unit not given here
Conditions: Molar ratio (Nucleotide/UCP) 0.682464; representative isotherm, pH 6.0, 20 °C
Exam item: assign Yes to entries whose isotherm data point (enthalpy change per injection) is below -20 and No to entries at or above -20. Note that a value of exactly -20 receives No.

molecule: Nc1ncnc2c1ncn2[C@@H]1O[C@H](COP(=O)(O)OP(=O)(O)OP(=O)(O)O)[C@@H](O)[C@H]1O [ATP, adenosine triphosphate]
measured on: UCP1 (Homo sapiens, UniProt P25874)
category label: Yes

molecule: Nc1nc2c(ncn2[C@@H]2O[C@H](COP(=O)(O)OP(=O)(O)OP(=O)(O)O)[C@@H](O)[C@H]2O)c(=O)[nH]1 [GTP, guanosine triphosphate]
measured on: UCP1 (Homo sapiens, UniProt P25874)
category label: No

molecule: Cc1cn([C@H]2C[C@H](O)[C@@H](COP(=O)(O)OP(=O)(O)OP(=O)(O)O)O2)c(=O)[nH]c1=O [dTTP, thymidine triphosphate]
measured on: UCP1 (Homo sapiens, UniProt P25874)
category label: No

molecule: O=c1ccn([C@@H]2O[C@H](CO[P@@](=O)(O)O[P@@](=O)(O)OP(=O)(O)O)[C@@H](O)[C@H]2O)c(=O)[nH]1 (stereo in doubt) [UTP, uridine triphosphate]
measured on: UCP1 (Homo sapiens, UniProt P25874)
category label: No

molecule: Nc1ccn(C2OC(COP(=O)(O)OP(=O)(O)OP(=O)(O)O)C(O)C2O)c(=O)n1 (centres unmarked)
measured on: UCP1 (Homo sapiens, UniProt P25874)
category label: No
